# measurement.target: Dual specificity protein kinase CLK2 (Homo sapiens)
# Sequence (P49760 whole entry): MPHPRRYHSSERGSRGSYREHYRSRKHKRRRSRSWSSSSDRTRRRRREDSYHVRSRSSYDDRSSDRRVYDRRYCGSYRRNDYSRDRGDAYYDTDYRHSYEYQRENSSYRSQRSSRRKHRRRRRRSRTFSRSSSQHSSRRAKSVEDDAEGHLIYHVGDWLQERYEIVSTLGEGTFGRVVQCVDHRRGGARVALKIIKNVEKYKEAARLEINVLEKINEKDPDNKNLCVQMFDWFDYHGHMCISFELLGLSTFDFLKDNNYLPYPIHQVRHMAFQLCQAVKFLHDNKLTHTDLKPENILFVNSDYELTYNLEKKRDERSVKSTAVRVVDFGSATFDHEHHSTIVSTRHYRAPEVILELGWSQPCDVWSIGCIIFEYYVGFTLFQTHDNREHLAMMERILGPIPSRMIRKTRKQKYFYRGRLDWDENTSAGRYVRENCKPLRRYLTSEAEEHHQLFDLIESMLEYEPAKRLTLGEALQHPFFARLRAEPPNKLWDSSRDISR
Parameter IC50: see the listing below.
Just the number in nM, nothing appended.

{"mol": "O=C1N=C(NCc2cccs2)S/C1=C/c1ccc2ncccc2c1", "readout.label": "IC50", "observed.measurement": 553}

Query: Enter IC50 (test system Dual specificity protein kinase CLK2 (Homo sapiens)) for "CSc1nc2ccc3nc(NC(=O)c4ccco4)sc3c2s1"
Result: 174

---

# measurement.target: Dual specificity protein kinase CLK3 (Homo sapiens, UniProt P49761)
# Sequence (P49761 as listed by the source): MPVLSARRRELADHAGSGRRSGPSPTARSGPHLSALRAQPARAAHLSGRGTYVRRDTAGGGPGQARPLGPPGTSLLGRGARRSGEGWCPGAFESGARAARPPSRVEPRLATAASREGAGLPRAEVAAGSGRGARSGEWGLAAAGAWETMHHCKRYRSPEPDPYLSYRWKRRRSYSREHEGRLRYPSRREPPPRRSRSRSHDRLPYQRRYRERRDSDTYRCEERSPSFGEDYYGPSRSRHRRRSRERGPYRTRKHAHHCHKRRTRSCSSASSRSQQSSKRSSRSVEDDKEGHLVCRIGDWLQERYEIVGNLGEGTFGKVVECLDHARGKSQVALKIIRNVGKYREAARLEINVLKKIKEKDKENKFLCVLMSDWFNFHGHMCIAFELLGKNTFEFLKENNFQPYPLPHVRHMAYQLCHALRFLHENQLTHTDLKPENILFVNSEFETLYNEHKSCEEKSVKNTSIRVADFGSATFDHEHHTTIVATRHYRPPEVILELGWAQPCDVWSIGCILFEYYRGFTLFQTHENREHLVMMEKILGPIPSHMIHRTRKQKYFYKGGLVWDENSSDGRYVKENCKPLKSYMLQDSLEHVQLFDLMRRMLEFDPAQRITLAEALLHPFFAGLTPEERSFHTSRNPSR
readout.label: pIC50
Notebook: values listed as pIC50 are -log10 of the concentration (mol/L).

Query: Supply reported pIC50 belonging to this molecule: Cc1nc2ccc3sc(NC(=O)c4ccc5ncsc5c4)nc3c2s1 [3A5]
Result: 6.46

Reference for the values: BindingDB's records for doi:10.1021/acs.biochem.5b01128
